- experimental-target: GST-YTHDF2 (Homo sapiens, UniProt Q9Y5A9)
- Construct: made in house
- Sequence (Q9Y5A9 whole entry): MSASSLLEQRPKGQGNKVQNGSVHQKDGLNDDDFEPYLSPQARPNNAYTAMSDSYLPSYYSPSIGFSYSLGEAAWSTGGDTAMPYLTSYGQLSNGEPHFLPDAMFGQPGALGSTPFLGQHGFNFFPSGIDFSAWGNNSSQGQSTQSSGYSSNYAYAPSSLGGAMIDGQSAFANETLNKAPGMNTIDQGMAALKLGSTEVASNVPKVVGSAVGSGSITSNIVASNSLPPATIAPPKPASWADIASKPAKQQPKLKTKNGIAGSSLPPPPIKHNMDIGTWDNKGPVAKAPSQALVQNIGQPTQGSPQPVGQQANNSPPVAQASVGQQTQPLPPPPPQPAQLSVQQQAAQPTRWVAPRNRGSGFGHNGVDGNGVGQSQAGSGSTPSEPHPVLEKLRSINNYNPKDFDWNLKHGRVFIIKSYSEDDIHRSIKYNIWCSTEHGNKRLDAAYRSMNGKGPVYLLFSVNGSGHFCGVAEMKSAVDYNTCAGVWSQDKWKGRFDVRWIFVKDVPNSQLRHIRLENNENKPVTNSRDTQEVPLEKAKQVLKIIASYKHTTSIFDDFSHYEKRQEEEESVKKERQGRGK
- protocol-notes: HTRF-based binding assay, competition with m6A-oligoRNA, DF2
Please use Yes for IC50 under 20 µM and No for everything else, ties included.

compound="COc1ccc(NC=C2C(=O)NC(=O)NC2=O)cc1 [Compound 12]" label_value=No
compound="O=C1NC(=S)NC(=O)C1=NNc1cccc(C(=O)O)c1 [Compound 8]" label_value=Yes
compound="CC=CC=C1C(=O)NC(=O)NC1=O [Compound 11]" label_value=No
compound="CN(C)c1ccc(C=C2C(=O)NC(=S)NC2=O)cc1 [Compound 7]" label_value=No
compound="COc1ccc(C=C2C(=O)NC(=S)NC2=O)cc1C [Compound 10]" label_value=No

###

- experimental-target: GST-YTHDF2 (Homo sapiens, UniProt Q9Y5A9)
- Construct: made in house
- protocol-notes: HTRF-based binding assay, competition with m6A-oligoRNA, DF2
- details: LE = -RT ln IC50/HAC from HTRF IC50
readout: LE (ligand efficiency, DF2)

smiles_string=O=c1[nH]c(=S)[nH]c2n[nH]cc12 readout="LE (ligand efficiency, DF2)" assay_value="0.51 kcal/(mol HAC)"
smiles_string=Cc1c(C(=O)NCc2ccccc2)sc2[nH]c(=S)[nH]c(=O)c12 readout="LE (ligand efficiency, DF2)" assay_value="0.31 kcal/(mol HAC)"
smiles_string=Cc1c(-c2ccc([N+](=O)[O-])cc2)sc2[nH]c(=S)[nH]c(=O)c12 readout="LE (ligand efficiency, DF2)" assay_value="0.35 kcal/(mol HAC)"
smiles_string=Cc1c(C(=O)NCc2cccnc2)sc2[nH]c(=S)[nH]c(=O)c12 readout="LE (ligand efficiency, DF2)" assay_value="0.31 kcal/(mol HAC)"
smiles_string=COc1ccc(C=C2C(=O)NC(=S)NC2=O)cc1C readout="LE (ligand efficiency, DF2)" assay_value="0.33 kcal/(mol HAC)"
smiles_string=COc1ccc(-c2cc3c(=O)[nH]c(=S)[nH]c3s2)cc1 readout="LE (ligand efficiency, DF2)" assay_value="0.34 kcal/(mol HAC)"
smiles_string=CN(C)c1ccc(C=C2C(=O)NC(=S)NC2=O)cc1 readout="LE (ligand efficiency, DF2)" assay_value="0.34 kcal/(mol HAC)"

###

- experimental-target: UniProt:Q9H6S0
- Sequence (Q9H6S0 1285-1424): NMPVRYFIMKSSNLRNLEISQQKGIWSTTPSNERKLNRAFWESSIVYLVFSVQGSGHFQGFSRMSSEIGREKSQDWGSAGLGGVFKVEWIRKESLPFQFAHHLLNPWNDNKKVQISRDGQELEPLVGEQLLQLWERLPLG
readout: log10 of Kd (log10 of the value in µM)

smiles_string=NC(=O)c1csc2[nH]c(=S)[nH]c(=O)c12 readout="log10 of Kd" assay_value=1.26
smiles_string=Cc1c(-c2ccc([N+](=O)[O-])cc2)sc2[nH]c(=S)[nH]c(=O)c12 readout="log10 of Kd" assay_value=1.54
smiles_string=CCOC(=O)c1ccc(-c2cc3c(=O)[nH]c(=S)[nH]c3s2)cc1 readout="log10 of Kd" assay_value=0.92
smiles_string=CCOC(=O)c1sc2[nH]c(=S)[nH]c(=O)c2c1C readout="log10 of Kd" assay_value=2.36
smiles_string=Cc1csc2[nH]c(=S)[nH]c(=O)c12 readout="log10 of Kd" assay_value=2.08
